biological target: N-terminally biotinylated recombinant human PADI4 (bio-His-PADI4) (human, UniProt Q9UM07 1-663, biotin on the N-terminal Avi-Tag (BirA)); assay: SPR
Sequence (Q9UM07 whole entry): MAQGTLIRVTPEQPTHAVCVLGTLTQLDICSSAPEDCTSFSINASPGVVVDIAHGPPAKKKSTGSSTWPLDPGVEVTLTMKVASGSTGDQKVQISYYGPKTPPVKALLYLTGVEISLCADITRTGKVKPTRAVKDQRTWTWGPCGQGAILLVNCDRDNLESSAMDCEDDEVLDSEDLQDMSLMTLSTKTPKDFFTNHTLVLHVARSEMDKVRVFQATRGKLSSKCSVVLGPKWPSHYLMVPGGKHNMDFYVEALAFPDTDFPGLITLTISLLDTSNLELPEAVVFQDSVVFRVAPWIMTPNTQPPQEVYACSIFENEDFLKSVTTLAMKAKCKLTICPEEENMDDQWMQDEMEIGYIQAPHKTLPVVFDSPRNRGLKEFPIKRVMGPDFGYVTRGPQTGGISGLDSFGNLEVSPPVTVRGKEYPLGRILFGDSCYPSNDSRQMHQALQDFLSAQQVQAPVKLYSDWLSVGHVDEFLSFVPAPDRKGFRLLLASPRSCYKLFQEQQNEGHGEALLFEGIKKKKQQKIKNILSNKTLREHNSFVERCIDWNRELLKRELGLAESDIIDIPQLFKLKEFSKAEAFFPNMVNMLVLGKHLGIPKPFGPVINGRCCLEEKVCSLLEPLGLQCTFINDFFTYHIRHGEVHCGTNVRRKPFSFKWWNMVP
observation_type: log10 Kd (log10 of the value in nM)
Recall that a logarithmic scale is used here: each number is log10 of Kd in nM.

Example results:
- YRDHHYNHPKYCG (as PADI4_3: D-tyrosine at position 1; thioether cyclisation between the N-terminus and the cysteine side chain; C-terminal amide) [PADI4_3 variant with R7 replaced by asparagine]: 1.61
- YRDHHYRHPVYCG [PADI4_3_K10V]: 0.70
- YRDHHYWHPKYCG (as PADI4_3: D-tyrosine at position 1; thioether cyclisation between the N-terminus and the cysteine side chain; C-terminal amide) [PADI4_3 variant with R7 replaced by tryptophan]: 0.78
- YRDHHHRHPKYCG [PADI4_3_Y6H]: 1.48
- YRDHHYRHPIYCG [PADI4_3_K10I]: 0.60

# input Supply log10 Kd value. Item: YRDHHYAHPKYCG (as PADI4_3: D-tyrosine at position 1; thioether cyclisation between the N-terminus and the cysteine side chain; C-terminal amide) [PADI4_3 variant with R7 replaced by alanine]
# output 0.90

# input Supply log10 Kd value. Item: YRDRHYRHPIYCG (D-tyrosine at position 1; N-terminus joined to the side chain of Cys12 by a thioether bond (cyclic); C-terminal amide) [PADI3_H4R_K10_I]
# output 0.85

# input Supply log10 Kd value. Item: YRDHHYRHPKYCG [PADI4_3_dY1(OMe)Y]
# output 1.36
